Each entry below carries its recorded inhibition.
Test Target: Nitric oxide synthase, inducible (Homo sapiens)
Sequence (P35228 whole entry): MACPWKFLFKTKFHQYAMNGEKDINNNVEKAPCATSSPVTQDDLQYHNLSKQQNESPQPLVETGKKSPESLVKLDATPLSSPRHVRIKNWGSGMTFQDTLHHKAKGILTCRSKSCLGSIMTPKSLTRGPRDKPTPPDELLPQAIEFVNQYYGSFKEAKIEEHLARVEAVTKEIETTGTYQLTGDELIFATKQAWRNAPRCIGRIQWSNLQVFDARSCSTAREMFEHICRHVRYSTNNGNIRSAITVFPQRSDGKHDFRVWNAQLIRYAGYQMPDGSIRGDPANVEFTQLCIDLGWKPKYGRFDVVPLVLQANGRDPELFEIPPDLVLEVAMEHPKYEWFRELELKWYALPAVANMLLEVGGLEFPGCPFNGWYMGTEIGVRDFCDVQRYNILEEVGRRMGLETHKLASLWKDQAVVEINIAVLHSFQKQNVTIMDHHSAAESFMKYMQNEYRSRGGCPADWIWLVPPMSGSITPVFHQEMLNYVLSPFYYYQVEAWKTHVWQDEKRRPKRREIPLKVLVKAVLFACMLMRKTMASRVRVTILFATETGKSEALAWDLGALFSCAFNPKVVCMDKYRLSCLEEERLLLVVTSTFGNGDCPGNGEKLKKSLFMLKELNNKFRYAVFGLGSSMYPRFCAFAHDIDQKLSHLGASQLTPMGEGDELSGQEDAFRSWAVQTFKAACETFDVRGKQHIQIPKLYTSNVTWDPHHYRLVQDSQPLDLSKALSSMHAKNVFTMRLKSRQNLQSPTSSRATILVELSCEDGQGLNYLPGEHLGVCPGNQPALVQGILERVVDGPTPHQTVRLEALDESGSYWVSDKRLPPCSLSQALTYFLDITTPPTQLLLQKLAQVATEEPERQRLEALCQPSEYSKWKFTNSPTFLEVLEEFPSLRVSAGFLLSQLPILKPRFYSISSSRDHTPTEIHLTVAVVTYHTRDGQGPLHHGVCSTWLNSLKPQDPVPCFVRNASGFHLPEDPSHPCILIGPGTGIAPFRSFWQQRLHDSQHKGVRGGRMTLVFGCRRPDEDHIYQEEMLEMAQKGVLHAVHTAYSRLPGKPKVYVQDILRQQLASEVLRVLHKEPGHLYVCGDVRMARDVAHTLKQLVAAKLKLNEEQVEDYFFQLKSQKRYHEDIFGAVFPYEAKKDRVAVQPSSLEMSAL
Test Description: Inhibition of human iNOS expressed in human HEK293 cells assessed as nitrite accumulation at 100 uM after 18 hrs by 2,3-diaminonapthalene assay
Type: cell-based

Example entries begin here.
Cc1cc(C(=O)NCCN(C)Cc2ccc3c(c2)OCO3)nc(-n2ccnc2)n1 :: < 50%
CN(CCCNCc1ccc(F)c(F)c1)c1nc(-n2ccnc2)ns1 :: < 50%
O=C(O)CN(CCCNCc1ccc2c(c1)OCO2)c1nc(-n2ccnc2)ns1 :: < 50%
CN(CCCNCc1ccncc1)c1nc(-n2ccnc2)ns1 :: < 50%

Give its inhibition value. Item: CN(CCCNCc1ccc2[nH]ccc2c1)c1nc(-n2ccnc2)ns1
< 50%

Give its inhibition value. Item: CN(CCCNCc1ccccc1)c1nc(-n2ccnc2)ns1
< 50%

====

Test Target: Nitric oxide synthase, inducible (Mus musculus) (UniProt P29477)
Sequence (P29477 whole entry): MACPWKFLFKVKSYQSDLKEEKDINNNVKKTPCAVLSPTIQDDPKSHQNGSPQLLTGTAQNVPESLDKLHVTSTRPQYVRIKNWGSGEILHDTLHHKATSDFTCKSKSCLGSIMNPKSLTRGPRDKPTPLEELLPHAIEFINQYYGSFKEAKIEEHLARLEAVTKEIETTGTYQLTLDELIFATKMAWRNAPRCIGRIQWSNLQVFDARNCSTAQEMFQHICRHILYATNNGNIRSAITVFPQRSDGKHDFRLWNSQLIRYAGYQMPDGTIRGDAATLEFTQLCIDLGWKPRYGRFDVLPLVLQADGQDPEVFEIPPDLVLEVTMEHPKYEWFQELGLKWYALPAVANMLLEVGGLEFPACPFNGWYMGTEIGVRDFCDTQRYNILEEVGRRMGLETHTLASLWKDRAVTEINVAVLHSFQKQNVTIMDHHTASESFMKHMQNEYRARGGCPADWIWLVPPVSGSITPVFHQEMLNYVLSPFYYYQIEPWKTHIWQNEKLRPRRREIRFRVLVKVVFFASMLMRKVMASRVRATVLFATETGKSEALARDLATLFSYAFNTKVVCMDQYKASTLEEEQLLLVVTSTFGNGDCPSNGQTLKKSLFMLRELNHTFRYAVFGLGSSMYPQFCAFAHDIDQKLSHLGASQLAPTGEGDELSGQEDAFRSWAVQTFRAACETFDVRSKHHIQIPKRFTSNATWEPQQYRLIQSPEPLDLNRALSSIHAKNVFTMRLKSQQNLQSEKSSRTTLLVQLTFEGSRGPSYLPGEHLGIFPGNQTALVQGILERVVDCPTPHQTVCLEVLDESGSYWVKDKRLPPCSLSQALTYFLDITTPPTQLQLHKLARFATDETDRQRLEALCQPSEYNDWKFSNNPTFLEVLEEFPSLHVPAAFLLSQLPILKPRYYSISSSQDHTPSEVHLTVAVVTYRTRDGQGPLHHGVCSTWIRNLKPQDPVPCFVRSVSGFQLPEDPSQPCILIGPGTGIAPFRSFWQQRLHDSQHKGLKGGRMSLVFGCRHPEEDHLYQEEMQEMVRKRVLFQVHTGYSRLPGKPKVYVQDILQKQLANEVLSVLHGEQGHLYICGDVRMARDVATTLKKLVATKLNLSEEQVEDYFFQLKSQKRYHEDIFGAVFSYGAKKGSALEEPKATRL
Test Description: Inhibition of IFN-gamma/LPS-induced iNOS dimerization in mouse RAW264.7 cells by Western blot analysis
Assay type: cell-based
The source made the active and inactive calls. No cut-off for these calls is given here.
A correct response names exactly one class from active, inactive

Check out these entries, answers already filled in.
Cc1cc(N(C)CCCNCc2ccc3c(c2)OCO3)nc(-n2ccnc2)n1 :: active
Cc1cc(N(C)CCCNCc2ccc3c(c2)OCO3)nc(-n2cccc2)n1 :: inactive
CN(CCCNCc1ccccc1)c1nc(-n2ccnc2)ns1 :: active

Could you now look at the following compound, please?
Hello, I am checking results. What call was entered for CN(CCCNCc1ccc2c(c1)OCO2)c1nc(-n2ccnc2)ns1 ?
active

====

Test Target: Nitric oxide synthase 1 (Homo sapiens, UniProt P29475)
Sequence (P29475 whole entry): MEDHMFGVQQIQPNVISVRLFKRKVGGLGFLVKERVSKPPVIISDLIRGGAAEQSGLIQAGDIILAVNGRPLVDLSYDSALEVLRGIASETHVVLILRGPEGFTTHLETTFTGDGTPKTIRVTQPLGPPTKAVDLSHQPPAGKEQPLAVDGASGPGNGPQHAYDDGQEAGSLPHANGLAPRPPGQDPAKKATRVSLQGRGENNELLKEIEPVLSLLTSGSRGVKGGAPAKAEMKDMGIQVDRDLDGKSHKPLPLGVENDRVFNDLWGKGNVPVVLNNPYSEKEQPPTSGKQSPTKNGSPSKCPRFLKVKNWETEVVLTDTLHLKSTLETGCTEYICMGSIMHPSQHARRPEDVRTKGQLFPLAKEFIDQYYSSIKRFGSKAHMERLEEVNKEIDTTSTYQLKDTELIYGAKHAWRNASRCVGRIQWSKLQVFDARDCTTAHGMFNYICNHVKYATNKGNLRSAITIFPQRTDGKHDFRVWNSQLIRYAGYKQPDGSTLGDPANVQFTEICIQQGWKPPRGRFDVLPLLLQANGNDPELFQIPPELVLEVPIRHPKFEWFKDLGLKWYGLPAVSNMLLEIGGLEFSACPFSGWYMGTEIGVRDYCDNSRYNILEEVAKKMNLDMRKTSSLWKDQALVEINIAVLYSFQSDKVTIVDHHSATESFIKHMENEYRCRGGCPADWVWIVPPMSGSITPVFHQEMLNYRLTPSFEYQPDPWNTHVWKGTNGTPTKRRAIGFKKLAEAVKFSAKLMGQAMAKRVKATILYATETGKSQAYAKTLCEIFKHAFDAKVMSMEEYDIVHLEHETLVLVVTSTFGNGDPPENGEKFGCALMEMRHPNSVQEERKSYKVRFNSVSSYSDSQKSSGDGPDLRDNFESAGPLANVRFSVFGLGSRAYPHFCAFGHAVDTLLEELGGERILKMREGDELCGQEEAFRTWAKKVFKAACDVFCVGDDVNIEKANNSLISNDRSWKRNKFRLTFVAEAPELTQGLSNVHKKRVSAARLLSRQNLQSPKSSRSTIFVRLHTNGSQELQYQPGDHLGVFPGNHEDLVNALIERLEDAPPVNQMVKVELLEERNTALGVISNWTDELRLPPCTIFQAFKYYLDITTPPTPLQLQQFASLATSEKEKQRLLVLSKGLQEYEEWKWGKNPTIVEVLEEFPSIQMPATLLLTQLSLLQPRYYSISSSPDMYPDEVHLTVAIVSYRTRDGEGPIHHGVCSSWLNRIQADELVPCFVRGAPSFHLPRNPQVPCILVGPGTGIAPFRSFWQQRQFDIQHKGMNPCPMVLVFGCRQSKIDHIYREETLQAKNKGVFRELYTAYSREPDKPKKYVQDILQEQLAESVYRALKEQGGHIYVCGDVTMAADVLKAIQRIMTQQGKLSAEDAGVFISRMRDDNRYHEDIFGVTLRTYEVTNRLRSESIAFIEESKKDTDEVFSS
Test Description: Inhibition of human nNOS expressed in HEK293 cells assessed as inhibition ionomycin-induced nitric oxide production incubated for 24 hrs measured after 18 hrs of ionomycin challenge by 2,3-diaminonaphthalene assay
pEC50: −log10 of the molar value.
Assay Endpoint: pEC50

Example entries begin here.
CCCN(CCCNCc1ccc2c(c1)OCO2)c1nc(-n2ccnc2)ns1 :: 5.64
Cc1cc(C2CCCN2C(=O)NCCc2ccc3c(c2)OCO3)nc(-n2ccnc2)n1 (stereo not given) :: 5.57
c1cn(-c2nsc(N(CCCNCc3ccc4c(c3)OCO4)Cc3ccc4occc4c3)n2)cn1 :: 5.10
Cc1cc(C2CCCN2CC(=O)NCc2ccc3c(c2)OCO3)nc(-n2ccnc2)n1 (stereo not given) :: 5.02
Cc1cc(C2CCCN2C(=O)CNCc2ccc3c(c2)OCO3)nc(-n2ccnc2)n1 (stereo not given) :: 5.18

1: c1csc(CN(CCCNCc2ccc3c(c2)OCO3)c2nc(-n3ccnc3)ns2)c1
2: Cn1cnc(CN(CCCNCc2ccc3c(c2)OCO3)c2nc(-n3ccnc3)ns2)c1
Consider entries 1 and 2 . Which has the numerically lower pEC50? State your choice using its label.
2

====

So I've got IC50 readings for Nitric oxide synthase, inducible (Homo sapiens), take a look.
Assay Endpoint: IC50 (nM)

1: CN(CCCNCc1ccc2c(c1)OCO2)c1nc(-n2ccnc2)ns1
2: Cc1cc(N(C)CCCNCc2ccc3c(c2)OCO3)nc(-n2ccnc2)n1
Hi, I'm comparing 1 with 2 and wondering which one has the bigger number for IC50. Any idea? State your choice using its label.
2
(2: 10 nM, 1: 7 nM)

====

Test Target: Nitric oxide synthase 1 (Homo sapiens)
Test Description: Inhibition of human nNOS expressed in HEK293 cells assessed as inhibition ionomycin-induced nitric oxide production incubated for 24 hrs measured after 18 hrs of ionomycin challenge by 2,3-diaminonaphthalene assay
pEC50: −log10 of the molar value.
Assay Endpoint: pEC50

CCOC(=O)CN(CCCNCc1ccc2c(c1)OCO2)c1nc(-n2ccnc2)ns1 :: 5.12
CN(CCCNCc1ccc2c(c1)OCCO2)c1nc(-n2ccnc2)ns1 :: 4.62
N#CCN(CCCNCc1ccc2c(c1)OCO2)c1nc(-n2ccnc2)ns1 :: 5.14

A: Cc1cc(C2CCCN2CCN(C)Cc2ccc3c(c2)OCO3)nc(-n2ccnc2)n1 (stereo not given)
B: Oc1ccc(CN(CCCNCc2ccc3c(c2)OCO3)c2nc(-n3ccnc3)ns2)cc1
Consider entries A and B . Which has the numerically lower pEC50? State your choice using its label.
B
(B: 4.96, A: 5.41)

Sourced from ChEMBL document CHEMBL1909611
